# protocol text: Inhibition of IMP-1 (unknown origin) using FC5 as substrate preincubated for 10 mins followed by substrate addition and measured immediately by fluorescence based analysis
# Parameters: species or system Bacteria
Lab note: anything with IC50 below 3000 nM is marked 1; values at 3000 nM or higher are marked 0.

Below, 2 compounds whose answers are already recorded.
{"columns": ["structure as smiles", "class name"],
 "data": [
  ["Cc1cc(Cl)cc(-c2c(C(=O)O)[nH]c3c2CCc2ccccc2-3)c1", 1],
  ["O=C(O)c1[nH]c2c(c1-c1ccc(Cl)cc1Cl)CCc1ccccc1-2", 0]
]}

Determine whether this compound shows IC50 lower than 3000 nM (ties excluded): "COc1ccc(Cl)cc1-c1c(C(=O)O)[nH]c2c1CCc1ccccc1-2" 1

Determine whether this compound shows IC50 lower than 3000 nM (ties excluded): "O=C(O)c1[nH]c2c(c1-c1ccccc1Cl)CCc1ccccc1-2" 1

Determine whether this compound shows IC50 lower than 3000 nM (ties excluded): "O=C(O)c1[nH]c2c(c1-c1cccc(F)c1F)CCc1ccccc1-2" 1

Determine whether this compound shows IC50 lower than 3000 nM (ties excluded): "O=C(O)c1[nH]c2c(c1-c1cc(Cl)c(Cl)c(Cl)c1)CCc1ccccc1-2" 1

Determine whether this compound shows IC50 lower than 3000 nM (ties excluded): "O=C(O)c1[nH]c2c(c1-c1cc(Cl)cc(Cl)c1)CCc1ccccc1-2" 1

Determine whether this compound shows IC50 lower than 3000 nM (ties excluded): "Cc1ccc(-c2c(C(=O)O)[nH]c3c2CCc2ccccc2-3)c(F)c1" 0

Determine whether this compound shows IC50 lower than 3000 nM (ties excluded): "O=C(O)c1[nH]c2c(c1-c1ccccc1)CCc1ccccc1-2" 0

----------
# protocol text: Metabolic stability in mouse liver microsomes assessed as intrinsic clearance at 1 uM preincubated for 5 mins followed by NADPH addition and measured up to 60 mins by LC-MS/MS analysis
# Format: ADME, Microsome
# condition info: time < 65 min, read-out: CLH
property measured: microsomal CLint at 1 µM (µL/min/mg)
Reply numerically in µL/min/mg, unit not repeated.

Endpoint output: microsomal CLint at 1 µM of "COc1ccc(Cl)cc1-c1c(C(=O)O)[nH]c2c1CCc1ccccc1-2" . Value? 12.9

----------
# protocol text: Metabolic stability in human liver microsomes assessed as intrinsic clearance at 1 uM preincubated for 5 mins followed by NADPH addition and measured up to 60 mins by LC-MS/MS analysis
# Type: ADME, Microsome
# condition info: time < 65 min, read-out: CLH
property measured: microsomal CLint at 1 µM (µL/min/mg)
Reply numerically in µL/min/mg, unit not repeated.

Endpoint output: microsomal CLint at 1 µM of "COc1ccc(Cl)cc1-c1c(C(=O)O)[nH]c2c1CCc1ccccc1-2" . Value? 9.8

----------
# protocol text: Metabolic stability in human liver microsomes assessed as parent compound remaining at 1 uM measured at 60 mins in presence of NADPH by LC-MS/MS analysis
# Type: ADME, Microsome
# condition info: read-out: Stability
property measured: remaining at 1 h, 1 µM (%)
Reply numerically in %, unit not repeated.

Endpoint output: remaining at 1 h, 1 µM of "COc1ccc(Cl)cc1-c1c(C(=O)O)[nH]c2c1CCc1ccccc1-2" . Value? 56

----------
# protocol text: Metabolic stability in mouse liver microsomes assessed as parent compound remaining at 1 uM measured at 60 mins in presence of NADPH by LC-MS/MS analysis
# Type: ADME, Microsome
# condition info: read-out: Stability
property measured: remaining at 1 h, 1 µM (%)
Reply numerically in %, unit not repeated.

Endpoint output: remaining at 1 h, 1 µM of "COc1ccc(Cl)cc1-c1c(C(=O)O)[nH]c2c1CCc1ccccc1-2" . Value? 44.2
